- assay text: Pharmacokinetic study (oral, cannulated rats, LC/MS of plasma)
- Type: in vivo, rat
- condition description: rat, plasma; male Wistar rats, oral, 5 mg/kg, mixture of both compounds in Solutol HS 15/PEG300 (3:1)

[
  {
    "compound": "CCC(C)[C@H](NC(=O)Cc1ccccc1F)C(=O)N[C@]1(C(=O)N[C@H](C(=S)NCC2CCOCC2)C(C)CC)CCc2[nH]c3c(C(F)(F)F)cccc3c2C1 (stereo partly shown) [Compound 52]",
    "Tmax / h": 4
  }
]

----------
Reported Normalized microsomal stability values for a set of compounds
- assay text: Metabolic stability testing in liver microsomes
- Type: in vitro ADME
- condition description: mixed-gender human liver microsomes, 1 mg microsomal protein/mL, initial concentration 10 μM, 60 minutes at 37° C.; WO 2006/005484-substance 7 = 100%

[
  {
    "compound": "CCC(C)[C@H](NC(=O)Cc1ccccc1F)C(=O)N[C@]1(C(=O)N[C@H](C(=O)NNC(N)=O)C(C)CC)CCc2[nH]c3c(C(F)(F)F)cccc3c2C1 (some centres unmarked) [compound 164]",
    "Normalized microsomal stability (%)": 1230
  },
  {
    "compound": "CCNC(=S)NC[C@@H](NC(=O)[C@@]1(NC(=O)[C@@H](NC(=O)Cc2ccccc2F)C(C)CC)CCc2[nH]c3c(C(F)(F)F)cccc3c2C1)C(C)CC (some centres unmarked) [compound 173]",
    "Normalized microsomal stability (%)": 285
  },
  {
    "compound": "CCC(C)[C@H](NC(=O)Cc1ccccc1F)C(=O)N[C@]1(C(=O)N[C@H](CNC(=O)NCc2ccncc2)C(C)CC)CCc2[nH]c3c(C(F)(F)F)cccc3c2C1 (some centres unmarked) [compound 190]",
    "Normalized microsomal stability (%)": 665
  },
  {
    "compound": "CC[C@H](C)[C@H](NC(=O)Cc1ccccc1F)C(=O)N[C@]1(C(=O)N[C@H](c2nc(C(=O)O)cs2)[C@@H](C)CC)CCc2[nH]c3c(C(F)(F)F)cccc3c2C1 [compound 256]",
    "Normalized microsomal stability (%)": 1194
  },
  {
    "compound": "CCC(C)[C@H](NC(=O)Cc1ccccc1F)C(=O)N[C@]1(C(=O)N[C@H](C(=O)NC2CCC(O)CC2)C(C)CC)CCc2[nH]c3c(C(F)(F)F)cccc3c2C1 (some centres unmarked) [Compound 73]",
    "Normalized microsomal stability (%)": 624
  }
]
